target: DNA topoisomerase 2-alpha (Homo sapiens); assay: Inhibition of human recombinant topoisomerase-2alpha assessed as inhibition of relaxation of supercoiled pBR322 plasmid DNA at 20 uM measured after 1 hr by ethidium bromide staining based agarose gel electrophoresis relative to control etoposide
Please assign a class to every record based on measured Ratio, with ranges low bracket (below 0.8), middle bracket (0.8 to below 1), high bracket (1 or more)

Request: Please indicate the class for `Oc1ccc(-c2cc(-c3ccccc3)c3oc4cc(O)ccc4c3n2)cc1` based on its Ratio.
Response: high bracket

Request: Record `Oc1cccc(-c2cc(-c3cccc(O)c3)c3oc4cc(O)ccc4c3n2)c1` — which class?
Response: high bracket

Request: Please indicate the class for `Oc1ccc2c(c1)oc1c(-c3ccccc3O)cc(-c3ccccc3)nc12` based on its Ratio.
Response: low bracket

Request: Which Ratio category applies to `Oc1ccc(-c2cc(-c3ccc(O)cc3)c3oc4cc(O)ccc4c3n2)cc1` here?
Response: high bracket

Request: Categorize the following entry: `Oc1cccc(-c2cc(-c3ccccc3O)c3oc4cc(O)ccc4c3n2)c1`
Response: low bracket
